Tested on: histone deacetylase (HDAC), HeLa nuclear extract
method: Deacetylase activity on nuclear extract of HeLa cells (Fluor de Lys kit)
Format: biochemical, human
runParameters: 0.1 μM compound, percent inhibition relative to control without inhibitor
Where % inhib at 0.1 μM equals or exceeds 60%, the correct label is criterion met; where it does not, the label is criterion not met.

Check the entry CN(C)c1ccc2c(c1)S(=O)(=O)N(CCCCCC(=O)NO)c1ccc(O)cc1N2 [Example 26] : does % inhib at 0.1 μM equal or exceed 60%? criterion met

Please indicate if the recorded % inhib at 0.1 μM for COc1ccc2c(c1)Nc1ccccc1N(CCCCCC(=O)NO)S2(=O)=O [Example 30] meets or exceeds 60%. criterion met

Dear colleague, could you confirm whether CN(C)c1ccc2c(c1)S(=O)(=O)N(CCCCCC(=O)NO)c1ccccc1N2 [Example 20] has % inhib at 0.1 μM at or above 60%? criterion not met

Is the recorded value of % inhib at 0.1 μM equal to or greater than 60% for this molecule? COc1ccc2c(c1)N(CCCCCC(=O)NO)C(=O)c1ccccc1[S+]2[O-] (stereo not drawn) [Example 11] criterion met

# bool: % inhib at 0.1 μM of O=C(CCCCCN1C(=O)c2ccccc2Oc2ccccc21)NO [Example 12] >= 60% criterion met

Is it the case that COc1ccc2c(c1)Nc1ccc(N(C)C)cc1S(=O)(=O)N2CCCCCC(=O)NO [Example 27] has % inhib at 0.1 μM reaching or exceeding 60%? criterion met

Determine whether this molecule has % inhib at 0.1 μM no lower than 60%: O=C(CCCCCN1c2ccccc2Oc2ccccc2S1(=O)=O)NO [Example 23] criterion not met

# check: % inhib at 0.1 μM of COc1ccc2c(c1)N(CCCCCC(=O)NO)S(=O)(=O)c1ccccc1N2 [Example 29] is greater than or equal to 60% criterion not met

Record COc1ccc2c(c1)N(CCCCCC(=O)NO)C(=O)c1ccccc1O2 [Example 13] ; criterion: % inhib at 0.1 μM no lower than 60%. Met? criterion met

###

System: histone deacetylase (HDAC), HeLa nuclear extract
method: Deacetylase activity on nuclear extract of HeLa cells (Fluor de Lys kit)
Assay type: biochemical, human
runParameters: 0.1 μM compound, percent inhibition relative to control without inhibitor
parameterMeasured: % inhib at 0.1 μM (%)
Kindly provide the numeric value in % only, without the unit symbol.

Tell us which % inhib at 0.1 μM value is on record for O=C(CCCCCCN1C(=O)c2ccccc2Oc2ccccc21)NO 62

For the molecule COc1ccc2c(c1)N(CCCCCC(=O)NO)C(=O)c1ccccc1S2(=O)=O , report % inhib at 0.1 μM. 83

Name the recorded % inhib at 0.1 μM of the item O=C(CCCCCN1C(=O)c2ccccc2S(=O)(=O)c2ccc(Cl)cc21)NO in your answer. 77

Look up and report measured % inhib at 0.1 μM for this entry: O=C(CCCCCN1C(=O)c2ccccc2Oc2ccc(Cl)cc21)NO 65

Output measured % inhib at 0.1 μM for this item: O=C(CCCCCN1C(=O)c2ccccc2S(=O)(=O)c2ccccc21)NO 73

Return % inhib at 0.1 μM (reported value) for this molecule: Nc1cccc2c1Nc1ccccc1S(=O)(=O)N2CCCCCC(=O)NO 47

Give the measured % inhib at 0.1 μM for O=C(CCCCCN1c2cc(F)ccc2Nc2ccccc2S1(=O)=O)NO 42
